Each recorded value in this set is attributed to paper PMC2644664.

system-under-test: subtype C HIV-1 RT (cWT), recombinant p66/p51 heterodimer
Construct: gene pol; mature RT cut from Gag-Pol polyprotein; plasmid pcRT6H-PROT, His-tagged, E. coli M15(pREP4); with p51 RT
test-protocol: steady-state filter-binding assay, [3H]dATP incorporation
Type: biochemical, Human immunodeficiency virus type 1
experimental-context: dPR primer on subtype C HIV-1 PBS RNA; variable dATP, 50 μM dCTP/dGTP/dTTP, 5 mM MgCl2, pH 7.8, 37°C; chain terminator; read-out: Ki(TFV), μM^b

| molecule | Ki, µM |
| --- | --- |
| C[C@H](Cn1cnc2c(N)ncnc21)OCP(=O)(O)OP(=O)(O)OP(=O)(O)O [TFV-DP] | 0.24 |
